tested on: foxtail, giant (giant foxtail, Setaria faberii); assay: Test C postemergence, plant response rating; format: in vivo; details: Setaria faberi, post-emergence, 125 g ai/ha, scale 0 to 100 (0 no effect, 100 complete control)
Listed below: pest or weed control at 125 g/ha values for each entry.
Number only, in %; omit the unit.

O=C(OCCC(F)(F)F)c1c(Cl)cccc1Oc1ncc(Cl)cn1 [Compound 15]
35

Q. What value of pest or weed control at 125 g/ha has been recorded for this entry: C=CCCOC(=O)c1c(Br)cccc1Oc1ncc(Cl)cn1 [Compound 21]
A. 15

Q. // query pest or weed control at 125 g/ha value for entry N#Cc1cccc(Oc2ncc(Cl)cn2)c1CCCCC(F)(F)F [Compound 73]
A. 25

Q. Entry O=C(CCC(F)(F)F)c1c(Cl)cccc1Oc1ncc(Cl)cn1 [Compound 107] : reported pest or weed control at 125 g/ha = ?
A. 25

The origin of these recorded values is patent US11053204B2.
